Quick reference for MFI among some binders
Biological target: SARS-CoV-2 Spike Protein (RBD) (R319-F541).hFc (SARS-CoV-2)
Test: Luminex beads, supernatant
resultType: MFI (MFI)

| binder | recordedMeasurement |
| --- | --- |
| mAb10920 (antibody, V domains shown) VH: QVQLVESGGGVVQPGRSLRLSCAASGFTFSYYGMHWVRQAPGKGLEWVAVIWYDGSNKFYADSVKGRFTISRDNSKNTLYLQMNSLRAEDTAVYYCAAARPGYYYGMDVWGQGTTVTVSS VL: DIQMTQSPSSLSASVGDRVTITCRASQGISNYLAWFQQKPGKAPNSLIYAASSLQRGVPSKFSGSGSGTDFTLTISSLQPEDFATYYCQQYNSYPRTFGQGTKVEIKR | 36800 |
| mAb10984 (antibody, V domains shown) VH: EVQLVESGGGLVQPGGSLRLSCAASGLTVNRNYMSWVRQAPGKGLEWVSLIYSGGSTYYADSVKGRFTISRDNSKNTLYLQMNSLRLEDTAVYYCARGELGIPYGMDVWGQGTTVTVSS VL: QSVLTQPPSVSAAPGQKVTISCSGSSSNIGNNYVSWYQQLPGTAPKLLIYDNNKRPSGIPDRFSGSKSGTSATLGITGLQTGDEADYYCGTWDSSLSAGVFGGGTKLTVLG | 28400 |
| mAb10954 (antibody, V domains shown) VH: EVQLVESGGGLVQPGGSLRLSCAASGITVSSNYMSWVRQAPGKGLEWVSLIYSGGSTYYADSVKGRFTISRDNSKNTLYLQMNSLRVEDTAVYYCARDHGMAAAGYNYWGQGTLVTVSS VL: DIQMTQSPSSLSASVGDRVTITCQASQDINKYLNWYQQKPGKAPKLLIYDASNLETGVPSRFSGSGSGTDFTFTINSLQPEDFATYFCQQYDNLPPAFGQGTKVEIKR | 31800 |
